# target of assay: c-Met positive cell MKN-45 (Homo sapiens)
# Sequence (P08581 25-1390): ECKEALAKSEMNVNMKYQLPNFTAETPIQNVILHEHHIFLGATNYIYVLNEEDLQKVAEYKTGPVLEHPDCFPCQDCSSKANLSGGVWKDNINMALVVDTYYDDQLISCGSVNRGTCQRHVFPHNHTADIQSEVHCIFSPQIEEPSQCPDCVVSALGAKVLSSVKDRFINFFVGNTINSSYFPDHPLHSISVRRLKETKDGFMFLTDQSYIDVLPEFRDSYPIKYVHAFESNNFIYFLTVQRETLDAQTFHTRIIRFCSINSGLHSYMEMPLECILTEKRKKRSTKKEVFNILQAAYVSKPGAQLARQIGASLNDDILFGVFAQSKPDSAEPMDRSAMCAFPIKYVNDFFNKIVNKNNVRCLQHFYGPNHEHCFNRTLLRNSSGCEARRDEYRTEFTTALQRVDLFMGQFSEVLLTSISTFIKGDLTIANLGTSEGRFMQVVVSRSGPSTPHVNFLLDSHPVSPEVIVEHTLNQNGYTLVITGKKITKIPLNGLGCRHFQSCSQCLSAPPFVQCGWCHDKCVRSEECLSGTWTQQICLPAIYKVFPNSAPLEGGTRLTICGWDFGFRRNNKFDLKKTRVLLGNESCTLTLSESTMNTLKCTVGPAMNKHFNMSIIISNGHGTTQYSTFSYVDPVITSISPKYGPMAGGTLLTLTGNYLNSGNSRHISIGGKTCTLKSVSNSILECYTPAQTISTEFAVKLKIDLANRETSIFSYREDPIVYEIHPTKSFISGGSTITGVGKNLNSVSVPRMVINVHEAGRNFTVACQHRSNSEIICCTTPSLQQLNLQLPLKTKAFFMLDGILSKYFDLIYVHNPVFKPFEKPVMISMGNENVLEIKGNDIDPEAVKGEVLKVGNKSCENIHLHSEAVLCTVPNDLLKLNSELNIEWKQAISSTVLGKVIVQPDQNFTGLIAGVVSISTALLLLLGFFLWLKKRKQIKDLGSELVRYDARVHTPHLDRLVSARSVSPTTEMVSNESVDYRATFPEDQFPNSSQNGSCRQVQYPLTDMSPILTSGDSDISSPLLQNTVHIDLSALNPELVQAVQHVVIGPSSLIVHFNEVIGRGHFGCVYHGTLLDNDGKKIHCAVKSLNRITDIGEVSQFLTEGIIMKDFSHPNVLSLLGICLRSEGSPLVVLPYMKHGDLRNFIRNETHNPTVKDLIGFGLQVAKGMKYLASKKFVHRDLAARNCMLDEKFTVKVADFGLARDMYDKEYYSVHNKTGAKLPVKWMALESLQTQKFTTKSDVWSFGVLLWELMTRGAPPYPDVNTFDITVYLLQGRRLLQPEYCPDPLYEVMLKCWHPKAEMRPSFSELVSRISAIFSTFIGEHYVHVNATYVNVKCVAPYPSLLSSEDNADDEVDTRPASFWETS
# assay details: Flow cytometry detection of binding of FITC-labelled peptide to c-Met positive cell MKN-45
# Assay type: cell-based
# reported conditions: comparison of EC50 with CM7-1; FITC-labelled peptides tested
reported endpoint: affinity to c-Met positive cell MKN45 relative to CM7-1

- substance: "DQIIANA [CM7-1.6]"
  target of assay: "c-Met positive cell MKN-45 (Homo sapiens)"
  result: "increased affinity"
- substance: "DQIAANN [CM7-1.4]"
  target of assay: "c-Met positive cell MKN-45 (Homo sapiens)"
  result: "increased affinity"

###

# target of assay: c-Met positive cell MKN-45 (Homo sapiens)
# assay details: Flow cytometry detection of binding of FITC-labelled peptide to c-Met positive cell MKN-45
# Format: cell-based
# reported conditions: alanine scanning, FITC-labelled peptides 10 µM to 0.625 µM, FIG. 12
# Protocol: MKN 45 cells cultured in a 1640 culture solution (Nanjing Senbeijia Biotechnology Co., Ltd.) were collected, and washed twice with pre-cooled PBS. 1 mL of 1% BSA solution was added into the washed cells, and then the above mixed system was placed on a rotary mixer (Lichen Technology Co., Ltd.) and incubated for 30 min at 4°C. […]
reported endpoint: binding affinity to c-Met positive cell MKN45 compared with P1-AI

- substance: "RAPYANS [P1-AI-2]"
  target of assay: "c-Met positive cell MKN-45 (Homo sapiens)"
  result: "reduced"
- substance: "RSAYANS [P1-AI-3]"
  target of assay: "c-Met positive cell MKN-45 (Homo sapiens)"
  result: "reduced"
- substance: "ASPYANS [P1-AI-1]"
  target of assay: "c-Met positive cell MKN-45 (Homo sapiens)"
  result: "reduced"
